# Assayed System: hTLR8 (Homo sapiens)
# Construct: host or cells: HEK-Blue hTLR8 (HEK293-derived reporter cells with SEAP read-out)
# Protocol Summary: EC50 assay for small molecule agonists, HEK-Blue hTLR8 cells, SEAP readout
# Format: cell-based
# Conditions Used: read-out: concentration for 50% of maximal effect (EC50) hTLR8
Readout Name: EC50 (nM)

(a) CCCN(CCC)C(=O)C1=Cc2ccc(-c3ccc(C(=O)N4CCCC4)cc3)cc2N=C(N)C1 [VTX2337, reference compound]
(b) CCCCCc1cc(Cc2ccc(CN3CCCCC3)cc2)c(C)nc1N
(c) CCCCNc1cc(Cc2ccc(CN(C)C)cc2)c(C)nc1N
Query: Could you arrange the 3 compounds above by EC50, starting with the largest number? A ranking is expressed here by listing the labels in the requested order.
Result: a, b, c

###

# Assayed System: hTLR8 (Homo sapiens)
# Construct: host or cells: HEK-Blue hTLR8 (HEK293-derived reporter cells with SEAP read-out)
# Protocol Summary: EC50 assay for small molecule agonists, HEK-Blue hTLR8 cells, SEAP readout
# Format: cell-based
# Conditions Used: agonist activity, read-out: hTLR8(EC50)
Readout Name: EC50 (nM)

(a) CCCCCc1cc(Cc2ccc(CNC3CC3)cc2)c(C)nc1N [Compound N20]
(b) CCCCCc1cc(CCc2ccc(CN(C)C)cc2)c(C)nc1N [Compound N54]
Query: Returns: the argument ( a or b ) having the larger EC50. Lab log: write the label of the selected item as the result.
Result: b
(b: 518 nM, a: 130 nM)

###

# Assayed System: hTLR8 (Homo sapiens, UniProt Q9NR97)
# Construct: host or cells: HEK-Blue hTLR8 (HEK293-derived reporter cells with SEAP read-out)
# Sequence (Q9NR97 27-1041): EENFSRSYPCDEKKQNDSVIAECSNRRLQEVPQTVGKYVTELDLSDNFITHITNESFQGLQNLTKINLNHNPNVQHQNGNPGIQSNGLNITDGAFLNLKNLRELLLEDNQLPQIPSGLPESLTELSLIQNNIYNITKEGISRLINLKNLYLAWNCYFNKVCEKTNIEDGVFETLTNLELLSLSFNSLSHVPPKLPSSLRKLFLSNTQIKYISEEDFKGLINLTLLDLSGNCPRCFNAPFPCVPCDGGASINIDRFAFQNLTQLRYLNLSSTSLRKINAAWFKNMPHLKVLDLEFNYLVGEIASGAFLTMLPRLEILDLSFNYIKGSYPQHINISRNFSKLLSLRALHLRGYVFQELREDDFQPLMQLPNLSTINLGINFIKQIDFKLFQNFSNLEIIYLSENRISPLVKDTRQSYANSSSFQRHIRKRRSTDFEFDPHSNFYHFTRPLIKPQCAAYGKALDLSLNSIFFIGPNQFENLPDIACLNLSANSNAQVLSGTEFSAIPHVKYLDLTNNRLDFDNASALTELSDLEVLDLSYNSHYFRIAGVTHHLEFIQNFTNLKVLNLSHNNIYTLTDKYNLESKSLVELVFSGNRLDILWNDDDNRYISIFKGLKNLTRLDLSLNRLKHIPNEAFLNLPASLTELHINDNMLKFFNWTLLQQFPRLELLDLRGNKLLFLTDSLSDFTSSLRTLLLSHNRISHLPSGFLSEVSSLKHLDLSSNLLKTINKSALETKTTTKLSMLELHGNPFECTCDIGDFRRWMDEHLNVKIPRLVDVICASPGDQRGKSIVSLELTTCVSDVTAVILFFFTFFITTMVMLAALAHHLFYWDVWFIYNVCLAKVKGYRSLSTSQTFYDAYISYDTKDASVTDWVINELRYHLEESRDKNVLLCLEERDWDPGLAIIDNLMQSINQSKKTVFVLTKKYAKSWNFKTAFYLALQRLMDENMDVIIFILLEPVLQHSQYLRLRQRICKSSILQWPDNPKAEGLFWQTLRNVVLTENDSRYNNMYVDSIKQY
# Protocol Summary: EC50 assay for small molecule agonists, HEK-Blue hTLR8 cells, SEAP readout
# Format: cell-based
# Conditions Used: agonist activity, read-out: hTLR8(EC50)
# Protocol: Reagents used for cell culture and detection for HEK-Blue™ hTLR7, HEK-Blue™ hTLR8 and control HEK-Blue Nu112k were as follows: DMEM (4.5 g/L glucose), bovine serum FBS, streptomycin ([…]), penicillin (50 U/mL), Blasticidin (10 mg/mL), Zeocin™ (10 mg/mL), Normocin (50 mg/mL), and HEK-Blue™ Detection. […]
Readout Name: EC50 (nM)

>  <Smiles Entry>
CCCCCc1cc(Cc2ccc(CN3CC[C@H](O)C3)cc2)c(C)nc1N

>  <EC50 [nM]>
124

$$$$
>  <Smiles Entry>
CCCCCc1cc(Cc2ccc(CN3CC4(COC4)C3)cc2)c(C)nc1N

>  <EC50 [nM]>
81

$$$$

(1) CCCCCc1cc(Cc2ccc(CN)cc2)c(C)nc1N
(2) CCCCCc1cc(Cc2ccc(CNC)cc2)c(C)nc1N
Query: Given the two records 1 and 2 , choose the one whose EC50 value is lower. State the label of the item chosen.
Result: 2
(2: 84 nM, 1: 122 nM)

###

# Assayed System: hTLR8 (Homo sapiens, UniProt Q9NR97)
# Construct: host or cells: HEK-Blue hTLR8 (HEK293-derived reporter cells with SEAP read-out)
# Protocol Summary: EC50 assay for small molecule agonists, HEK-Blue hTLR8 cells, SEAP readout
# Type: cell-based
# Conditions Used: agonist activity, read-out: hTLR8(EC50)
Readout Name: EC50 (nM)

Some entries whose results are on file:
>  <Smiles Entry>
CCCCNc1cc(Cc2ccc(CN3CC4(COC4)C3)cc2F)c(C)nc1N

>  <Result Units>
nM

>  <Obs Value>
40

$$$$
>  <Smiles Entry>
CCCCCc1cc(Cc2ccc(CN(C)C)cc2OC(C)=O)c(C)nc1N

>  <Result Units>
nM

>  <Obs Value>
105

$$$$

(a) CCCCCc1cc(Cc2ccc(CN3CC(O)C3)cc2)c(C)nc1N
(b) CCCCCc1cc(Cc2ccc(CN(C)C)cc2O)c(C)nc1N
(c) CCCCNc1cc(Cc2ccc(CN3CC4(COC4)C3)cc2)c(C)nc1N
(d) CCCCNc1cc(Cc2ccc(CN3CCCC3)cc2)c(C)nc1N
Query: Put the items in order so that reported EC50 rises from first to last. # list labels per requested ordering
Result: c, d, a, b
